- SYSTEM: UniProt:Q9Y5Y9
- TEST: Nav1.8 Qube® Assay (automated 384-well patch-clamp, inhibition of sodium current)
- EXPERIMENTAL_CONTEXT: human NaV1.8 channels stably expressed in HEK 293 cells, room temperature
ATTRIBUTE_MEASURED: IC50 (nM)

[[record]]
compound = "C[C@@H]1C(=O)NCCN1C(=O)NC(c1ccc(F)c(C(F)(F)F)c1)C1CCC(C(F)(F)F)OC1 (single isomer, unassigned) [Example 60B]"
value_observed = 51.2

[[record]]
compound = "C[C@@H]1C(=O)NCCN1C(=O)NC(c1ccc(Cl)cc1)C1CCN(CC(F)(F)F)CC1 (single isomer, unassigned) [Example 16A]"
value_observed = 366

[[record]]
compound = "O=C1CN(C(=O)NC(c2ccc(F)c(Cl)c2)C2CC3CCC(C2)C3(F)F)CCN1 (single isomer, unassigned) [Example 2A]"
value_observed = 65.5

[[record]]
compound = "C[C@@H]1C(=O)NCCN1C(=O)NC(c1cc(F)c(F)c(F)c1)[C@H]1CC[C@H](C(F)(F)F)CC1 (single isomer, unassigned) [Example 6B]"
value_observed = 35.4

[[record]]
compound = "C[C@@H]1C(=O)NCCN1C(=O)NC(c1ccc(F)c(Cl)c1)C1CC(OCC(F)(F)F)C1 (single isomer, unassigned) [Example 44A]"
value_observed = 90.5

[[record]]
compound = "C[C@@H]1C(=O)NCCN1C(=O)NC(c1ccc(F)c(Cl)c1F)C1CC(C(F)(F)F)C1 (single isomer, unassigned) [Example 20C]"
value_observed = 9.02

[[record]]
compound = "C[C@@H]1C(=O)NCCN1C(=O)NC(c1ccc(F)c(Cl)c1F)C1CC(C(F)(F)F)C1 (single isomer, unassigned) [Example 20A]"
value_observed = 1.37

[[record]]
compound = "COC1CC(C(NC(=O)N2CCNC(=O)[C@H]2C)c2ccc(F)c(Cl)c2F)C1 (single isomer, unassigned) [Example 40B]"
value_observed = 14500


a = C[C@@H]1C(=O)NCCN1C(=O)NC(c1ccc(F)c(Cl)c1)C1CCC2(CC1)CC2(F)F (single isomer, unassigned) [Example 19C]
b = C[C@@H]1C(=O)NCCN1C(=O)NC(c1ccc(F)c(Cl)c1)C1CC(C(F)(F)F)C1 (single isomer, unassigned) [Example 43B]
c = O=C1CN(C(=O)N[C@H](c2ccc(Cl)cc2)C2CCC(C(F)(F)F)CC2)CCN1 (single isomer, unassigned) [Example 4B]
d = C[C@@H]1C(=O)NCCN1C(=O)NC(c1ccc(F)c(Cl)c1F)C1CC2(C1)CC2(F)F (single isomer, unassigned) [Example 22A]
e = C[C@@H]1C(=O)NCCN1C(=O)NC(c1ccc(F)c(Cl)c1F)[C@H]1C[C@@H]1C(F)(F)F (single isomer, unassigned) [Example 57C]
Order field: IC50 | Direction: descending (largest first) Present the labels in the sequence the task asks for.
e, c, b, a, d
(e: 566 nM, c: 288 nM, b: 26.4 nM, a: 15.7 nM, d: 2.9 nM)

1 = C[C@@H]1C(=O)NCCN1C(=O)NC(c1ccc(F)c(Cl)c1F)[C@H]1C[C@@H]1C(F)(F)F (single isomer, unassigned) [Example 57D]
2 = C[C@@H]1C(=O)NCCN1C(=O)NC(c1ccc(F)c(Cl)c1F)C1CCC(C(F)(F)F)C1 (single isomer, unassigned) [Example 58B]
3 = C[C@@H]1C(=O)NCCN1C(=O)NC(c1ccc(OC(F)(F)F)c(Cl)c1)C1CC(C(F)(F)F)C1 (single isomer, unassigned) [Example 54A]
Order field: IC50 | Direction: descending (largest first) Present the labels in the sequence the task asks for.
1, 2, 3

1 = O=C1CN(C(=O)NC(c2ccc(F)c(Cl)c2)C2CC3CCC(C2)C3(F)F)CCN1 (single isomer, unassigned) [Example 2B]
2 = C[C@@H]1C(=O)NCCN1C(=O)NC(c1ccc(Cl)c(C(F)F)c1)C1CCC(C(F)(F)F)CC1 (single isomer, unassigned) [Example 37B]
3 = C[C@@H]1C(=O)NCCN1C(=O)NC(c1ccc(F)c(Cl)c1F)C1CCC(F)(F)CC1 (single isomer, unassigned) [Example 13B]
4 = C[C@@H]1C(=O)NCCN1C(=O)NC(c1csc(C(F)(F)F)n1)[C@H]1CC[C@H](C(F)(F)F)CC1 (single isomer, unassigned) [Example 55B]
Could you please order the items by IC50, going from the lowest number to the highest? Present the labels in the sequence the task asks for.
4, 2, 1, 3
(4: 26.3 nM, 2: 145 nM, 1: 410 nM, 3: 726 nM)

A = C[C@@H]1C(=O)NCCN1C(=O)NC(c1ccc(F)c(Cl)c1F)C1CCC(F)(F)CC1 (single isomer, unassigned) [Example 13A]
B = COC1CC(C(NC(=O)N2CCNC(=O)[C@H]2C)c2ccc(F)c(Cl)c2F)C1 (single isomer, unassigned) [Example 40D]
Could you kindly indicate whether A or B has the higher IC50 value? Mark your selection by writing its label.
B
(B: 108 nM, A: 13.4 nM)

====

- SYSTEM: human NaV1.8 (Homo sapiens, UniProt Q9Y5Y9)
- Sequence (Q9Y5Y9 whole entry): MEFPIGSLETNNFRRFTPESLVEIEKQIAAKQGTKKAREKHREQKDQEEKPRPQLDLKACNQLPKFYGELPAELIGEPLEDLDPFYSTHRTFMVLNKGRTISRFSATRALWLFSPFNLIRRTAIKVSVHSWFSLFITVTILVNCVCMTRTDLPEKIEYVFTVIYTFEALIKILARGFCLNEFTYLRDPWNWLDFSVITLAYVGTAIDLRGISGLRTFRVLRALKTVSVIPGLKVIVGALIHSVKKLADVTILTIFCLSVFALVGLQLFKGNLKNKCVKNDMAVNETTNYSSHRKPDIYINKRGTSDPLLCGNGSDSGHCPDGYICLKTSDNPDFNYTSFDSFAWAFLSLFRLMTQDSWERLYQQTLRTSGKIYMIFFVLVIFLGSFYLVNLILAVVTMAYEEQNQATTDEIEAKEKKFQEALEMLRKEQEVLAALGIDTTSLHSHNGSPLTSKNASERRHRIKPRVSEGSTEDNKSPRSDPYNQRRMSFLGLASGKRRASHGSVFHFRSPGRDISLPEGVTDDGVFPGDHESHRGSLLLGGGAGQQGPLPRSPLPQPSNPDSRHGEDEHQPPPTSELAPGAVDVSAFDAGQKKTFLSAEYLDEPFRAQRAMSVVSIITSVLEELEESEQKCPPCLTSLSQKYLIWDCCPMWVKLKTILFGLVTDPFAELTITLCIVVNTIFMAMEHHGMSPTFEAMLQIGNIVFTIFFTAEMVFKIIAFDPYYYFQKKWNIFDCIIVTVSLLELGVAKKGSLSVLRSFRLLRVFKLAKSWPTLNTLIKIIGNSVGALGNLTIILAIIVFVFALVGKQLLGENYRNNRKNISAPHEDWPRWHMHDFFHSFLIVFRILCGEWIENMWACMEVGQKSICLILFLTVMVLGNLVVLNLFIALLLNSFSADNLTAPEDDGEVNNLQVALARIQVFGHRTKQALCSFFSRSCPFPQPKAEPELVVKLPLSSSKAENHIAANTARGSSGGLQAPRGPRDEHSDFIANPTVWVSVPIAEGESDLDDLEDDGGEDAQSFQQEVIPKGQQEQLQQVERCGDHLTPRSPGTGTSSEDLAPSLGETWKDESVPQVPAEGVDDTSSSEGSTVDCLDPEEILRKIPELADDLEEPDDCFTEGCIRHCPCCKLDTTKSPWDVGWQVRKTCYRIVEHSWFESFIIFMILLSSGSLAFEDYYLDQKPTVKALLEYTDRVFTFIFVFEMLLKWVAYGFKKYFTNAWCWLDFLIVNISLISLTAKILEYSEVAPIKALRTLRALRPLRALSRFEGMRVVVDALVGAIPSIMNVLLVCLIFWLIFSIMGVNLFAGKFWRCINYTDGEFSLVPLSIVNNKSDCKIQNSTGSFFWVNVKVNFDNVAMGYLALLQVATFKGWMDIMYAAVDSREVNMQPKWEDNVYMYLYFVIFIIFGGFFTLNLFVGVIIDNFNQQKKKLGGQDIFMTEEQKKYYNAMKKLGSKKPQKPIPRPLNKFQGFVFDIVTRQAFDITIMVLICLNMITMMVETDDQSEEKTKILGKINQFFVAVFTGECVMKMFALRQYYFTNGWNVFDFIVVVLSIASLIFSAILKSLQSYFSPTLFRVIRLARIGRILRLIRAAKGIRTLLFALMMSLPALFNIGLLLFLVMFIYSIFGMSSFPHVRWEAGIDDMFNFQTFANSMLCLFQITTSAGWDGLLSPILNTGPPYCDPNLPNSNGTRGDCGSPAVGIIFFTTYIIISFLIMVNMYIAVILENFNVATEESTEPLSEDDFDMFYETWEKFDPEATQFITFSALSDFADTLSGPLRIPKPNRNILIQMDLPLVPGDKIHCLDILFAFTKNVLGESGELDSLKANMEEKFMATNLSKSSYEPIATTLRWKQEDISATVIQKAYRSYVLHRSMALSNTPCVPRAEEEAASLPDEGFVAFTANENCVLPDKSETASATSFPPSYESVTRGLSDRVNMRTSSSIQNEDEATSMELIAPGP
- TEST: Nav1.8 Qube® Assay (automated 384-well patch-clamp, inhibition of sodium current)
- EXPERIMENTAL_CONTEXT: human NaV1.8 channels stably expressed in HEK 293 cells, room temperature
ATTRIBUTE_MEASURED: IC50 (nM)

Guide cases for IC50, answers given:
[[record]]
molecule = "C[C@@H]1C(=O)NCCN1C(=O)NC(c1ccc(F)c(Cl)c1F)C1CC12CC2 (single isomer, unassigned) [Example 41B]"
unit_abbreviation = "nM"
value_observed = 1180

[[record]]
molecule = "C[C@@H]1C(=O)NCCN1C(=O)NC(c1ccc(F)c(Cl)c1)C1CCN(CC(F)(F)F)CC1 (single isomer, unassigned) [Example 15B]"
unit_abbreviation = "nM"
value_observed = 553

[[record]]
molecule = "C[C@@H]1C(=O)NCCN1C(=O)NC(c1ccc(F)c(Cl)c1)C1CCC(F)(F)CC1 (single isomer, unassigned) [Example 14A]"
unit_abbreviation = "nM"
value_observed = 18.5

[[record]]
molecule = "C[C@@H]1C(=O)NCCN1C(=O)NC(c1ccc(F)c(Cl)c1)C1CCN(CC(F)(F)F)CC1 (single isomer, unassigned) [Example 15A]"
unit_abbreviation = "nM"
value_observed = 28.3

[[record]]
molecule = "O=C1NCCN(C(=O)N[C@H](c2ccc(F)c(Cl)c2F)[C@H]2C[C@H](C(F)(F)F)C2)C1C1CC1 (single isomer, unassigned) [Example 27A]"
unit_abbreviation = "nM"
value_observed = 0.8

[[record]]
molecule = "C[C@@H]1C(=O)NCCN1C(=O)NC(c1cccc(Cl)c1F)[C@H]1C[C@H](C(F)(F)F)C1 (single isomer, unassigned) [Example 53A]"
unit_abbreviation = "nM"
value_observed = 538

[[record]]
molecule = "[2H]C1([2H])NC(=O)C(C)N(C(=O)N[C@H](c2ccc(F)c(Cl)c2F)[C@H]2C[C@H](C(F)(F)F)C2)C1([2H])[2H] (single isomer, unassigned) [Example 59A]"
unit_abbreviation = "nM"
value_observed = 2.6


1 = C[C@@H]1C(=O)NCCN1C(=O)NC(c1ccc(F)c(Cl)c1F)C1CC(C2CC2)C1 (single isomer, unassigned) [Example 21B]
2 = O=C1CN(C(=O)N[C@H](c2ccc(Cl)cc2)C2CCC(C(F)(F)F)CC2)CCN1 (single isomer, unassigned) [Example 4A]
3 = O=C1CN(C(=O)NC(c2ccc(F)c(Cl)c2)C23CC(C(F)(F)F)(C2)C3)CCN1 (single isomer, unassigned) [Example 34B]
4 = C[C@@H]1C(=O)NCCN1C(=O)NC(c1csc(C(F)(F)F)n1)[C@H]1CC[C@H](C(F)(F)F)CC1 (single isomer, unassigned) [Example 55A]
Order field: IC50 | Direction: descending (largest first) Present the labels in the sequence the task asks for.
4, 2, 3, 1

====

- SYSTEM: UniProt:Q9Y5Y9
- TEST: Nav1.8 Qube® Assay (automated 384-well patch-clamp, inhibition of sodium current)
- EXPERIMENTAL_CONTEXT: human NaV1.8 channels stably expressed in HEK 293 cells, room temperature
ATTRIBUTE_MEASURED: IC50 (nM)

[[record]]
compound = "O=C1NCCN(C(=O)N[C@H](c2ccc(F)c(Cl)c2F)[C@H]2C[C@H](C(F)(F)F)C2)C1C(F)(F)F (single isomer, unassigned) [Example 63B]"
unit_abbreviation = "nM"
value_observed = 9.1

[[record]]
compound = "O=C1CN(C(=O)N[C@H](c2ccc(F)c(Cl)c2F)[C@H]2C[C@H](C(F)(F)F)C2)CCN1 [Example 26]"
unit_abbreviation = "nM"
value_observed = 6.82

[[record]]
compound = "C[C@@H]1C(=O)NCCN1C(=O)NC(c1ccc(F)c(Cl)c1F)C1CCC(C(F)(F)F)C1 (single isomer, unassigned) [Example 58A]"
unit_abbreviation = "nM"
value_observed = 9.23

[[record]]
compound = "C[C@@H]1C(=O)NCCN1C(=O)NC(c1ccc(OC(F)(F)F)cc1F)[C@H]1C[C@H](C(F)(F)F)C1 (single isomer, unassigned) [Example 50B]"
unit_abbreviation = "nM"
value_observed = 9.01


Hey, just so you know, these numbers are from patent US20220380338A1.
